All figures here come from ChEMBL document CHEMBL1201862.

GI50 by entry:
system: SK-MEL-28; experiment: NCI tumour cell line growth inhibition, 48 h
Active and inactive are the calls of the source. Rule as the data show it: active = GI50 up to about 1.1 µM and inactive = higher.
observed_property: GI50

# compound, observed_property, result
records = [
    ("COc1ccc(OC)c(/C=C(/C#N)c2ccccc2)c1", "GI50", "23.4 µM (inactive)"),
    ("COc1cc(C2c3cc4c(cc3[C@@H](Nc3ccc5c(c3)OCCO5)C3COC(=O)[C@H]23)OCO4)cc(OC)c1O (stereo partly specified)", "GI50", "2.05 µM (inactive)"),
    ("CSc1ccc(/C=C2\\CN(C)C/C(=C\\c3ccc(SC)cc3)C2=O)cc1", "GI50", "> 100 µM (inactive)"),
    ("Cc1cn(C2CC(O)C(Cn3cc(Cn4ncc(=O)[nH]c4=O)nn3)O2)c(=O)[nH]c1=O (stereo unspecified)", "GI50", "> 100 µM (inactive)"),
    ("COc1cc(OC)c2c(=O)cc(-c3ccccc3F)[nH]c2c1", "GI50", "> 100 µM (inactive)"),
    ("CCCCCCCCCCCCn1c(=O)cc(NCCCC)c2cc3c(NCCCC)cc(=O)n(CCCCCCCCCCCC)c3nc21", "GI50", "> 100 µM (inactive)"),
    ("COc1ccc(CCCNC(=O)Cc2cc(OC)c(OC)cc2CO)cc1OC", "GI50", "> 100 µM (inactive)"),
    ("N#CCCN(CCC#N)C(=O)c1cccc(C(=O)N(CCC#N)CCC#N)c1", "GI50", "7.45 µM (inactive)"),
    ("CCCC(=O)NC(Nc1ccc(S(=O)(=O)Nc2ccc(OC)nn2)cc1)(C(F)(F)F)C(F)(F)F", "GI50", "> 100 µM (inactive)"),
    ("O=C1Nc2cc([N+](=O)[O-])ccc2C(=O)N2CCC[C@@H]12", "GI50", "> 100 µM (inactive)"),
    ("COc1cc(OC)c2c(=O)c(O)c(-c3ccc(OC)c(OC)c3)oc2c1", "GI50", "> 25.2 µM (inactive)"),
    ("N#CC(c1nc2ccccc2s1)c1ncnc(Cl)c1[N+](=O)[O-] (stereo unspecified)", "GI50", "19.9 µM (inactive)"),
    ("O=C(Nc1ccc(Cl)cc1Cl)C1C(=O)N(c2ccc(Cl)cc2Cl)C(=O)/C1=N\\Nc1ccc([N+](=O)[O-])cc1[N+](=O)[O-] (stereo unspecified)", "GI50", "47.8 µM (inactive)"),
    ("Fc1ccc(/N=C2C=C/C(=N\\c3ccc(F)cc3)c3ccccc3\\2)cc1", "GI50", "> 100 µM (inactive)"),
    ("COc1ccc(C(=O)/C=C/c2ccc(Oc3cc(C(=O)/C=C/c4ccc(O)cc4)c(O)cc3OC)cc2)c(O)c1", "GI50", "2.74 µM (inactive)"),
    ("O=C(CC(=O)C(=O)CC(=O)OCc1ccccc1)OCc1ccccc1", "GI50", "67.6 µM (inactive)"),
    ("O=C(O)Cc1nc[nH]c1C(=O)O", "GI50", "> 100 µM (inactive)"),
    ("COC(=O)c1c(OC(C)=O)ccc2c1c1cc3ccccc3c(OC(C)=O)c1n2C", "GI50", "84.5 µM (inactive)"),
    ("CCCC(=O)c1ccc(=O)n(C)c1", "GI50", "> 100 µM (inactive)"),
    ("Cc1nnc(N)nc1/C=C\\c1ccc(N(C)C)cc1", "GI50", "> 45.9 µM (inactive)"),
    ("Nc1c(C(=O)N/N=C/c2ccc(Cl)cc2)sc(=S)n1-c1ccccc1", "GI50", "41.9 µM (inactive)"),
]

* * *

system: T47D; assay: NCI tumour cell line growth inhibition, 48 h
The source made the active and inactive calls. Rule as the data show it: active = GI50 up to about 1.1 µM and inactive = higher. Where a SMILES comes first, the peptide text is derived from it. The star is where a group is joined. Boc = CC(C)(C)OC(=O)*
observed_property: GI50

# compound, target_under_test, result
measured = [
    ("CCCCC/C(C=O)=C\\c1ccccc1", "T47D", "> 100 µM (inactive)"),
    ("CCc1nc(N)nc(N)c1-c1ccc2nnn(O)c2c1", "T47D", "> 100 µM (inactive)"),
    ("CC(=O)CC[N+](C)(C)C", "T47D", "29.2 µM (inactive)"),
    ("CCOC(=O)N1CC2(C)C=CC1C(C(=O)OC)C2 (centres undefined)", "T47D", "> 100 µM (inactive)"),
    ("O=c1[nH]c(=O)n(C2CC(O)C(CO)O2)cc1Oc1ccccc1 (centres undefined)", "T47D", "> 100 µM (inactive)"),
    ("O=c1oc2ccccc2c(O)c1C(C/C(CCN1CCCC1)=N/O)c1ccccc1 (centres undefined)", "T47D", "7.87 µM (inactive)"),
    ("COC(=O)c1ccccc1C1CN=NC12Cc1cccc(C)c1C2=O (centres undefined)", "T47D", "16.6 µM (inactive)"),
    ("COC(=O)C(Cc1c[nH]c2ccccc12)NC(=O)C(Cc1c[nH]c2ccccc12)NC(=O)C(Cc1c[nH]c2ccccc12)NC(=O)C(Cc1c[nH]c2ccccc12)NC(=O)C(Cc1c[nH]c2ccccc12)NC(=O)C(Cc1c[nH]c2ccccc12)NC(=O)C(Cc1c[nH]c2ccccc12)NC(=O)OC(C)(C)C (centres undefined) (Boc-WWWWWWW-OMe; configuration not given here)", "T47D", "> 100 µM (inactive)"),
    ("COc1cc(C2c3cc4c(cc3OC(C)(N3CCCC3)C2C)OCO4)cc(OC)c1OC (centres undefined)", "T47D", "74.5 µM (inactive)"),
]

* * *

system: OVCAR-8; test: NCI tumour cell line growth inhibition, 48 h
Activity calls are given as the source filed them. Rule as the data show it: active = GI50 up to about 1.1 µM and inactive = higher.
Classes used: 1 for active, 0 for inactive

# compound, group_label
measured = [
    ("CC(=O)Nc1ccc2c3c(cc(O)c2c1)N(C(=O)CCCCCC(=O)Nc1ccc2c4c(cc(O)c2c1)N(C(=O)OC(C)(C)C)CC4CCl)CC3CCl (stereo not given)", 0),
    ("N#CCCN(CCC#N)C(=O)c1cccc(C(=O)N(CCC#N)CCC#N)c1", 0),
    ("CCCC(=O)c1ccc(=O)n(C)c1", 0),
    ("NC(=S)Nc1nnc(-c2ccc(-c3nnc(NC(N)=S)o3)cc2)o1", 0),
    ("CN(C)CCNC(=O)c1cccc2nc3ccc4ccccc4c3nc12", 1),
    ("O=[N+]([O-])C(/C(Cl)=C(/Cl)N1CCOCC1)=C1\\Nc2ccccc2O1", 0),
    ("Oc1ccc(Cl)cc1-c1cc(-c2ccccc2)nc(NCN2CCCCC2)n1", 0),
    ("N#CC(c1ccccc1)N(CCc1ccccc1)C(=O)c1ccccc1 (stereo not given)", 0),
    ("COc1ccc2c(c1)/C(=C(\\C(Cl)=C(Cl)Cl)[N+](=O)[O-])N2", 0),
    ("COc1ccc2cc(C(=O)Nc3ccc(O)c(C(=O)O)c3)ccc2c1OC", 0),
]

* * *

system: TK-10; test: NCI tumour cell line growth inhibition, 48 h
Calls of active or inactive are those of the source. Cut-off read from the data, not from the text of the source: active = GI50 up to about 1.1 µM and inactive = higher.
Classes used: yes (active), no (inactive)

# compound, target_under_test, group_label
records = [
    ("CN(C)c1ccc(-c2nc(-c3cc4c(ccc5ccccc54)oc3=O)cs2)cc1", "TK-10", "no"),
    ("Cc1nn(C(=O)c2ccccc2O)c2c1C(c1ccccc1)SC(=N)N2 (stereo not given)", "TK-10", "yes"),
    ("COc1ccc2c(c1)/C(=C(\\C(Cl)=C(Cl)Cl)[N+](=O)[O-])N2", "TK-10", "no"),
    ("COc1ccc(Nc2nc(N)c(C(=O)c3ccco3)s2)cc1", "TK-10", "no"),
    ("CC(C)CCCC(C)[C@H]1CC[C@H]2NCCCC[C@]12C (stereo not given in full)", "TK-10", "no"),
]

* * *

tested on: KM-20L2; experiment: NCI tumour cell line growth inhibition, 48 h
Calls of active or inactive are those of the source. Rule as the data show it: active = GI50 up to about 1.1 µM and inactive = higher.
Classes used: active, inactive

# compound, target_under_test, group_label
records = [
    ("Nc1cn(C2OC(CC(c3ccccc3)(c3ccccc3)c3ccccc3)C(O)C2O)c(=O)[nH]c1=O (stereo unspecified)", "KM-20L2", "inactive"),
    ("c1ccc2c(c1)oc1ccc3nsnc3c12", "KM-20L2", "inactive"),
    ("COc1cc(C2c3cc4c(cc3[C@@H](Nc3ccc5c(c3)OCCO5)C3COC(=O)[C@H]23)OCO4)cc(OC)c1O (stereo partly specified)", "KM-20L2", "active"),
    ("COC(=O)C1[C@H](c2ccc3c(c2)OCO3)OC(=O)[C@]1(C(=O)OC)C(=O)c1ccc(OC)c(OC)c1 (stereo partly specified)", "KM-20L2", "inactive"),
    ("COC(=O)CCC(=O)Nc1ccc(Cl)cc1C", "KM-20L2", "inactive"),
    ("COc1cc(Br)c(/C=N\\c2cccc3cc(OC)c(OC)cc23)cc1OC", "KM-20L2", "inactive"),
    ("COc1ccc2nc(-c3ccc(O)cc3)cc(O)c2c1", "KM-20L2", "inactive"),
    ("Cc1c2cc[n+](C)cc2c(C)c2c1sc1ccccc12", "KM-20L2", "inactive"),
    ("OC1=CN=C(C2CC2)Oc2ccccc21", "KM-20L2", "inactive"),
    ("Cc1cc(C)c2c(c1)CSCc1cc(C)cc(C)c1-2", "KM-20L2", "inactive"),
    ("COc1ccc(OC)c2c(=S)c3ccccc3[nH]c12", "KM-20L2", "inactive"),
]
